# testDescription: Pharmacokinetics following peroral administration to dogs
# Design: species or system beagle dogs
# conditionSet: dog, in vivo, po; 2 mg/kg peroral, fed male beagle dogs, 4% Soluplus in SGF pH 2.0
propertyLabel: Tmax (h)
Entry rule: numbers only, all in h.

// Input: `CCCn1c(=O)c2[nH]c(-c3cnn(Cc4cccc(C(F)(F)F)c4)c3)nc2n(CC)c1=O.O=C(O)/C=C/C(=O)O` . Output its Tmax only. 4

---

# testDescription: Pharmacokinetics following peroral administration to dogs
# Parameters: species or system beagle dogs
# conditionSet: dog, in vivo, po; 10 mg/kg peroral, fed male beagle dogs, 4% Soluplus in SGF pH 2.0
# Procedure: The pharmacokinetics of the fumaric acid cocrystal of Example 4 was evaluated following peroral administration to dogs. Male beagle dogs were separated into two groups of three dogs. […] The dosing formulation consisted of 0.40 mg/mL of the fumaric acid cocrystal in 4% Soluplus® in simulated gastric fluid (SGF) at pH 2.0, as a homogeneous opaque suspension of fine particles. […]
propertyLabel: AUC(0-inf) (ng·h/mL)
Entry rule: numbers only, all in ng·h/mL.

// Input: `CCCn1c(=O)c2[nH]c(-c3cnn(Cc4cccc(C(F)(F)F)c4)c3)nc2n(CC)c1=O.O=C(O)/C=C/C(=O)O` . Output its AUC(0-inf) only. 21100
